- Test system: P. aeruginosa ATCC 9027
- assay: Broth microdilution MIC/MBC on planktonic cells
- Assay type: cell-based
- particulars: Pseudomonas aeruginosa, ATCC9027; P. aeruginosa ATCC 9027, 24 h at 37°C; read-out: MIC
Measured MIC by item
Write the answer as a number in µg/mL, unit excluded.

IN: What value of MIC has been reported for the following compound? C[Se]CC[C@H](NC(C)=O)C(=O)Oc1cc(C(C)C)ccc1C [codrug 6, N-Ac-Met(Se)-CAR]
OUT: 5000

IN: Give its MIC value. Item: CC(=O)N[C@@H](CS)C(=O)O [NAC, N-Acetyl-cysteine, reference compound]
OUT: 5000

IN: Requested field: MIC. Item: CC(=O)N[C@@H](CS)C(=O)Oc1cc(C(C)C)ccc1C
OUT: 10000

IN: // query MIC value for entry C=CCSC[C@H](NC(C)=O)C(=O)O
OUT: 10000

Source: paper PMC4393269
